Recorded values, source patent US11590118B2.

Biological target: human CCR3 (Homo sapiens)
Sequence (P51677 1-355): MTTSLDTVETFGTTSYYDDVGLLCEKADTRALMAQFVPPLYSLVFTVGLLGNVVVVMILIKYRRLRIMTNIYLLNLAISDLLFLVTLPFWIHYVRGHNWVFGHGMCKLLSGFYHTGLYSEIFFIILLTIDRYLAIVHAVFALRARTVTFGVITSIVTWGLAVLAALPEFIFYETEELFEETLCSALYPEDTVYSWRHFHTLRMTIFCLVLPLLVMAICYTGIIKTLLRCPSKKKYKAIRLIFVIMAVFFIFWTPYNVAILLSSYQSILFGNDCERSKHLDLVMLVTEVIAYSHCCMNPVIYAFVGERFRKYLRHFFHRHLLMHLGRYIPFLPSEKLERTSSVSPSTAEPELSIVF
Assay: human eotaxin-1 induced eosinophil shape change in human whole blood
Format: cell-based
Details: read-out: IC50, antagonism of human eotaxin-1 induced eosinophil shape change
pIC50: −log10 of the molar value.
readout: pIC50

- given.smiles: "Cc1cc(C(=O)N(C)C)cc(NC(=O)[C@H]2CCC(=O)N2C2CCN(Cc3ccc(Cl)c(C)c3)CC2)n1"
  measured: 7.37

---

Biological target: human CCR3 (Homo sapiens)
Sequence (P51677 1-355): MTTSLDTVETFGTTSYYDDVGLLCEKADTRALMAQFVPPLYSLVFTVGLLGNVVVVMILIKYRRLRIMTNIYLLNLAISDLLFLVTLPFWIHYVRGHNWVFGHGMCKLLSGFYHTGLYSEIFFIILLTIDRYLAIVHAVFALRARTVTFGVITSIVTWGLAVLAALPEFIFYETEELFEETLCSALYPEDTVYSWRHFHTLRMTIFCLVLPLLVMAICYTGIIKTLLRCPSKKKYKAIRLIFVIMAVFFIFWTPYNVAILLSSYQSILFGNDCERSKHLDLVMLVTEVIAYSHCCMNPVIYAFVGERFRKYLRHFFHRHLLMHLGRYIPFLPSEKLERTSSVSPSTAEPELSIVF
Test: calcium influx assay using human CCR3-transfected CHEM1-Gα15 cells
Format: cell-based
pIC50: −log10 of the molar value.

- compound: "Cc1cc(C(=O)N(C)C)cc(NC(=O)[C@H]2CCC(=O)N2C2CCN(Cc3ccc(Cl)c(C)c3)CC2)n1 [investigational product of the invention]"
  tested.system: "human CCR3 (Homo sapiens)"
  pIC50: 9.05
